Read-out: Tumor necrosis factor (Homo sapiens) (UniProt P01375)
Sequence (P01375 whole entry, looked up): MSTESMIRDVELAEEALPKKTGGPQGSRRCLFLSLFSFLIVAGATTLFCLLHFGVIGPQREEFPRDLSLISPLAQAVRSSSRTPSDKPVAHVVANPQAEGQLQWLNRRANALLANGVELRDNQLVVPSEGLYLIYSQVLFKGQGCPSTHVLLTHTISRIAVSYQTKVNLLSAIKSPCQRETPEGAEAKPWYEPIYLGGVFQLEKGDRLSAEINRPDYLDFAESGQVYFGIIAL
Assay: BSK_BT_xTNFa: BioMAP Diversity Plus: BT Assay for Tumor necrosis factor alpha (TNF-alpha) Biomarker Activity (AID 2284230)
Details: primary human B cells with PBMC
The source made the active and inactive calls. How the source made its calls: active means hit-call score of the fitted dose curve at least 0.9, where 1 is the maximum; inactive means score below 0.9.
// classify into t (active), f (inactive)

>>> print(df.to_string())
                                   molecule  class
0  CCCCC(CC)COCCC#N (configuration not stated)      f
1                               CCCCCCCCC=O      f
2  C#C[C@]1(O)CC[C@H]2[C@@H]3CCC4=Cc5oncc5C[C@]4(C)[C@H]3CC[C@@]21C      t
3                     CCc1c(C)cc(N)c(CC)c1N      f
4  O=C(O)c1cn(-c2ccc(F)cc2)c2cc(N3CCNCC3)c(F)cc2c1=O      f
5  N#Cc1ccc(CC(=NNC(=O)Nc2ccc(OC(F)(F)F)cc2)c2cccc(C(F)(F)F)c2)cc1      f

What call does the record list for Nc1cc([N+](=O)[O-])ccc1Cl ?
f

====

Assay: ATG_EGR_CIS: Attagene CIS-FACTORIAL HepG2 Assay for human Early Growth Response 1 (EGR1) (AID 2282938)
Conditions: HepG2 Attagene CIS-FACTORIAL EGR reporter mRNA; actives raise or lower the signal
Activity calls are given as the source filed them. The calls were made as follows: active = hit-call score of the fitted dose curve at least 0.9, where 1 is the maximum; inactive = score below 0.9.
measured quantity: AC50

These solved cases illustrate the format of a correct answer.
In [3]: df
Out[3]:
                                   compound  measured_quantity               val
0                                   NCCNCCN               AC50          inactive
1  CCCc1c(OCCCOc2ccc(OCC(=O)O)cc2)ccc(C(C)=O)c1O               AC50  31.8 µM (active)
2     CC(C)C1CCC(O)CC1 (stereo unspecified)               AC50          inactive
3                     c1ccc(CCCc2ccccn2)cc1               AC50          inactive

Form: compound = CCCCCCCCCCCCCCCC(=O)OC[C@H](O)[C@H]1OC(=O)C(O)=C1O ; AC50 = inactive

Form: compound = Clc1ccc2c(c1)C(N1CCNCC1)=Nc1ccccc1O2 ; AC50 = 26.6 µM (active)

====

Test: ATG_MRE_CIS: Attagene CIS-FACTORIAL HepG2 Assay for human Metal Responsive Element (MRE) (AID 2282954)
Settings: HepG2 MRE cis-reporter transcription, Attagene multiplex; actives raise or lower the signal
The source made the active and inactive calls. The calls were made as follows: active = hit-call score of the fitted dose curve at least 0.9, where 1 is the maximum; inactive = score below 0.9.
// classify into active, inactive

In [3]: df
Out[3]:
                          molecule     class
0  Cc1c(N(C)C)c(=O)n(-c2ccccc2)n1C  inactive
1  CNCCCC12CCC(c3ccccc31)c1ccccc12    active

Consider the record given below.
What call does the record list for CCCC(=O)OCCC(C)CCC=C(C)C (stereo not drawn) ?
inactive

====

Biological target: Estrogen receptor (Homo sapiens)
Assay: ATG_ERa_TRANS: Attagene TRANS-FACTORIAL HepG2 Assay for human Estrogen Receptor alpha (ERa) (AID 2282970)
Conditions: HepG2 Attagene TRANS ERa GAL4 reporter, mRNA
Results filed as inconclusive are left out. Calls of active or inactive are those of the source. The calls were made as follows: active = hit-call score of the fitted dose curve at least 0.9, where 1 is the maximum; inconclusive = response in the unintended direction; inactive = score below 0.9.
// classify into Y (active), N (inactive)

Known results for compounds:
>>> df
                                   compound  class
0                    O=Nc1ccc(Nc2ccccc2)cc1      Y
1  CC(c1cc2ccccc2s1)N(O)C(N)=O (centres undefined)      N

What call does the record list for CC(C)(C)C(=O)c1ccccc1 ?
N

What call does the record list for CC(C)C(C)(C)C(C)(C)C(C)(C)S ?
Y

What call does the record list for CO[Si](C)(OC)c1ccccc1 ?
N

What call does the record list for Cc1ccc(Nc2ccc(O)c3c2C(=O)c2ccccc2C3=O)cc1 ?
N

What call does the record list for O=C(Nc1ccccc1)c1cc([N+](=O)[O-])ccc1Cl ?
Y

What call does the record list for Clc1nc(C(Cl)(Cl)Cl)c(Cl)c(Cl)c1Cl ?
N

What call does the record list for CC(C)c1cccc(O)c1 ?
Y
